Taken from PubChem BioAssay.

Readings of fluorescence ratio for the listed molecules
Assay: fluorescence interference in NS3h assay format, artefact control for HCV NS3 helicase inhibitor project, biochemical, NIH Clinical Collection (AID 743272);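 also: HCV NS3 helicase with a Cy5 labelled single stranded DNA probe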
Conditions: fluorescence interference counterscreen, stronger effect = lower value
Reply with the value as a number alone.

Here's what some known entries look like.
# molecule, result-type, experimental-value
records = [
    ("CCN(CC)CCOC(=O)c1ccc(N)cc1", "fluorescence ratio", 0.92),
    ("CCCCCN=C(N)N/N=C/c1c[nH]c2ccc(OC)cc12", "fluorescence ratio", 0.88),
    ("CN1CCCC(n2nc(Cc3ccc(Cl)cc3)c3ccccc3c2=O)CC1 (stereo not drawn)", "fluorescence ratio", 0.97),
    ("Cc1ccc(-c2cc(C(F)(F)F)nn2-c2ccc(S(N)(=O)=O)cc2)cc1", "fluorescence ratio", 1.02),
]

// fluorescence ratio value for CC(C)C(=O)Nc1ccc([N+](=O)[O-])c(C(F)(F)F)c1 : 0.88
